tested.system: human CB1 receptor (Homo sapiens, UniProt P21554)
Construct: expressed in transfected cells; host or cells: SK-N-MC cells, stably transfected with pcDNA3 CB-1 (human); semi-purified membrane pellet
Sequence (P21554 whole entry): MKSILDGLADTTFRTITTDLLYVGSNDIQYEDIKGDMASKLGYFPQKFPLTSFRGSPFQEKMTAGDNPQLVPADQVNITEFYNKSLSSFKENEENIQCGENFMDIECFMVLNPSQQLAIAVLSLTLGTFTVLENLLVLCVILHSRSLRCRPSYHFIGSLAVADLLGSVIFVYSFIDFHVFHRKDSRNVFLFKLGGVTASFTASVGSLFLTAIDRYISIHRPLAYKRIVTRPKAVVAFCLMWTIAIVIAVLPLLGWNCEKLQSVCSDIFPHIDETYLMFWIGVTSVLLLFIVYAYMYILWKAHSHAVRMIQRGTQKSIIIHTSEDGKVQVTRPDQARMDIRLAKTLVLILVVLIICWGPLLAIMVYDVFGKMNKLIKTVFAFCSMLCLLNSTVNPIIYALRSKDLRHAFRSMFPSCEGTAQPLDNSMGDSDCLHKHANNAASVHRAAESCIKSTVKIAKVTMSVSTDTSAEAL
assay.text: biochemical
Assay type: binding
assay.metric: log10 of IC50 (log10 of the value in nM)
The figures below represent log10 of IC50, where IC50 is stated in nM.

O=C(NC1C2CC3CC(C2)CC1C3)c1nn(CC2CCCCC2)c2c1CCCC2 (centres unmarked)	0.60

Ask | Give recorded log10 of IC50. `O=C(NN1CCCCCC1)c1nn(-c2ccc(Cl)cc2Cl)c2c1CCCC2=Cc1cccs1`
Reply | 1.57

Ask | For the molecule CCOC(=O)C1CCc2c(c(C(=O)NC(C)c3ccccc3)nn2Cc2ccccc2)C1 (centres unmarked) , give its measured log10 of IC50 value.
Reply | 2.41

Ask | Note log10 of IC50 for the molecule shown: `C[C@@H](NC(=O)c1nn(-c2ccc(Cl)cc2Cl)c2c1CCCC2=Cc1ccc(Br)cc1)c1ccccc1`
Reply | 1.00

Ask | Note down log10 of IC50 recorded for CC1(C)C2CCC1(C)C(NC(=O)c1nn(-c3ccc(F)cc3)c3c1CCCC3)C2 (centres unmarked)
Reply | 1.64

Ask | Determine its reported log10 of IC50: O=C(NCC12CC3CC(CC(C3)C1)C2)c1nn(-c2ccc(F)cc2)c2c1CCCC2c1ccccc1 (centres unmarked)
Reply | 2.98

Ask | Give the reported log10 of IC50 for this molecule. CCOC(=O)[C@H]1CCc2c(c(C(=O)NC3C4CC5CC(C4)CC3C5)nn2C2CCCCC2)C1 (some centres unmarked)
Reply | 2.82

Ask | Return log10 of IC50 for the following molecule: `C[C@@H](NC(=O)c1nn(-c2ccc(Cl)cc2Cl)c2c1CCC/C2=C\c1ccc(Cl)cc1)C1CCCCC1`
Reply | 0.78

* * *

tested.system: human CB1 receptor (Homo sapiens)
Construct: expressed in transfected cells; host or cells: SK-N-MC cells, stably transfected with pcDNA3 CB-1 (human); semi-purified membrane pellet
assay.text: Functional cell-based assay, CB1 receptor mediated change in CRE β-gal expression (agonist / inverse agonist)
Please note: EC50 exactly at 100 nM is f. Only values below 100 nM get t.

Solved entries (count: 5):
CC(NC(=O)c1nn(-c2ccc(Cl)cc2Cl)c2c1CCC/C2=C\c1ccc(Cl)cc1)c1ccccn1 (centres unmarked) [compound 320]	t
C[C@@H](NC(=O)c1nn(-c2ccc(Cl)cc2Cl)c2c1CCC/C2=C\c1ccc(F)cc1)C1CCCCC1 [compound 295]	t
CC(NC(=O)c1nn(-c2ccc(F)cc2)c2c1CCCC2c1ccccc1)C12CC3CC(CC(C3)C1)C2 (centres unmarked) [compound 146]	f
CCOC(=O)C1C2CCC(C2)C1NC(=O)c1nn(C2CCCCC2)c2c1CCCC2 (centres unmarked) [compound 28]	f
CCOC(=O)C1C2CCC(C2)C1NC(=O)c1nn(Cc2ccccc2)c2c1CCCC2 (centres unmarked) [compound 43]	f

Ask | Would you kindly verify if EC50 of C[C@@H](NC(=O)c1nn(-c2ccc(Cl)cc2Cl)c2c1CCC/C2=C\c1ccc(F)cc1)c1ccccc1 [compound 296] is strictly less than 100 nM?
Reply | t

Ask | # TODO verify EC50 < 100 nM strictly for this compound: C[C@H](NC(=O)c1nn(-c2ccc(Cl)cc2Cl)c2c1CCCC2=Cc1ccc(F)cc1)C1CCCCC1 [compound 309]
Reply | t
